test system: P388; assay: Cytotoxicity against mouse doxorubicin-sensitive P388 cells after 3 days; format: functional; conditions: P388, 72 h, read-out: ID50 (the source's name)
Parameter: IC50. Scope: all listed entries.
Please reply with the bare figure in µg/mL and do not write the unit itself.

# Compound, Assay Value
data = [
    ("CC(C)=CCC/C(C)=C/Cc1c(O)cc2cc3c(c(O)c2c1O)C(=O)CC(C)(O)C3 (stereo not given)", 2),
    ("COc1cc2cc3c(c(O)c2c2c1C=CC(C)(C)O2)C(=O)CC(C)(OC(C)=O)C3 (stereo not given)", 5),
    ("CC(=O)OC1(C)CC(=O)c2c(cc3cc(OC/C=C(\\C)CCC=C(C)C)cc(O)c3c2O)C1 (stereo not given)", 1.8),
    ("COc1cc2cc3c(c(O)c2c2c1C=CC(C)(C)O2)C(=O)CC(C)(O)C3 (stereo not given)", 10),
    ("CC(C)=CCC/C(C)=C/COc1cc(O)c2c(O)c3c(cc2c1)CC(C)(O)CC3=O (stereo not given)", 14),
]

Prompt: // fetch IC50 given entry CC(=O)OC1(C)CC(=O)c2c(cc3cc(O)c(C/C=C(\C)CCC=C(C)C)c(O)c3c2O)C1 (stereo not given)
Response: 2.7

Prompt: // fetch IC50 given entry COc1cc2cc3c(c(O)c2c(O)c1/C=C/C(C)C)C(=O)CC(C)(O)C3 (stereo not given)
Response: 0.4

Prompt: // fetch IC50 given entry COc1cccc2c1C(=O)c1c(O)c3c(c(O)c1C2=O)C[C@@](O)(C(=O)CO)C[C@@H]3O[C@H]1C[C@H](N)[C@H](O)[C@H](C)O1
Response: 0.0055

Prompt: // fetch IC50 given entry CC(=O)OC1(C)CC(=O)c2c(c(C/C=C(\C)CCC=C(C)C)c3cc(O)cc(O)c3c2O)C1 (stereo not given)
Response: 30

Prompt: // fetch IC50 given entry COc1cc2cc3c(c(O)c2c(O)c1/C=C/C(C)C)C(=O)CC(C)(OC(C)=O)C3 (stereo not given)
Response: 0.45
